Values were extracted from ChEMBL document CHEMBL1143391.

protocol-summary: Selectivity for HCV NS3 protease over human neutrophil elastase
measured-quantity: Ratio

A: C=CCNC(=O)C(=O)[C@@H]1CCCCCCCOC[C@H](NC(=O)N[C@H](CN2C(=O)CN(C)CC2=O)C(C)(C)C)C(=O)N2C[C@H]3[C@@H]([C@H]2C(=O)N1)C3(C)C
B: C=CCNC(=O)C(=O)[C@@H]1CCCCCCCO[C@@H](C)[C@H](NC(=O)N[C@H](CN2C(=O)CN(C)CC2=O)C(C)(C)C)C(=O)N2C[C@H]3[C@@H]([C@H]2C(=O)N1)C3(C)C
C: CC(C)(C)NC(=O)N[C@H](C(=O)N1C[C@H]2[C@@H]([C@H]1C(=O)NC(CC1CCC1)C(=O)C(N)=O)C2(C)C)C(C)(C)C (stereo partly drawn)
Prompt: Please rank everything listed above by Ratio, with the minimum value first. Reply with the labels, ordered as the question asks.
Completion: A, B, C
(A: 300, B: 1100, C: 2200)
